EXPERIMENT NOTES: Selectivity index, ratio of IC50 for cytotoxicity against rat L6 cells to IC50 for antiprotozoal activity against Plasmodium falciparum NF54
Type: toxicity, cell-based
ENDPOINT NAME: Ratio IC50
Numbers only.

Examples from the recorded data:
COMPOUND: COc1cccc2c(-c3ccc4c(c3O)[C@@H](C)N[C@H](C)C4)c(C)c(-c3c(C)c(-c4ccc5c(c4O)[C@@H](C)N[C@H](C)C5)c4cccc(OC)c4c3O)c(O)c12 (stereo in doubt; 1c)
Ratio IC50: 41.6
--
COMPOUND: COc1cccc2c(-c3ccc4c(c3O)[C@@H](C)N[C@H](C)C4)c(C)c(-c3c(C)c(-c4ccc5c(c4O)[C@@H](C)N[C@H](C)C5)c4cccc(OC)c4c3O)c(O)c12 (stereo in doubt; 1b)
Ratio IC50: 206
--
COMPOUND: COc1cccc2c(-c3ccc4c(c3O)[C@@H](C)N[C@H](C)C4)c(C)cc(O)c12 (stereo in doubt; 4a)
Ratio IC50: 13.7
--
COMPOUND: COc1cccc2c(-c3ccc4c(c3O)[C@@H](C)N[C@H](C)C4)c(C)cc(O)c12 (stereo in doubt; 4b)
Ratio IC50: 52.7
--
COMPOUND: COc1cccc2c(-c3ccc4c(c3O)[C@@H](C)N[C@H](C)C4)c(C)c(-c3c(C)c(-c4ccc5c(c4O)[C@@H](C)N[C@H](C)C5)c4cccc(OC)c4c3O)c(O)c12 (stereo in doubt; 1d)
Ratio IC50: 11400

Look up Ratio IC50: COc1cccc2c(-c3ccc4c(c3O)[C@@H](C)N[C@H](C)C4)c(C)c(-c3c(C)c(-c4ccc5c(c4O)[C@@H](C)N[C@H](C)C5)c4cccc(OC)c4c3O)c(O)c12 (stereo in doubt; 1a)
660

* * *

Test system: HT-1080
EXPERIMENT NOTES: Cytotoxicity against human HT1080 cells assessed as reduction of cell viability measured after 16 hrs by crystal violet staining assay
Assay type: functional, cell-based
CONDITIONS USED: HT-1080, 16 h
ENDPOINT NAME: IC50 (µM)
Numbers only, in µM.

// lookup IC50 | system=HT-1080 | key= COc1cccc2c(-c3ccc4c(c3O)[C@@H](C)N[C@H](C)C4)c(C)c(-c3c(C)c(-c4ccc5c(c4O)[C@@H](C)N[C@H](C)C5)c4cccc(OC)c4c3O)c(O)c12 (stereo in doubt; 1d)
9

* * *

System: Trypanosoma brucei rhodesiense
EXPERIMENT NOTES: Antiprotozoal activity against Trypanosoma brucei rhodesiense STIB900 trypomastigotes assessed as growth inhibition after 72 hrs by Alamar Blue dye-based fluorometric analysis
Assay type: functional, organism-based
CONDITIONS USED: Trypanosoma brucei, STIB900, 72 h
ENDPOINT NAME: pIC50
One number for each entry, as −log10 of the molar value.

Provide value of pIC50 for this record tested with Trypanosoma brucei rhodesiense: COc1cccc2c(-c3ccc4c(c3O)[C@@H](C)N[C@H](C)C4)c(C)cc(O)c12 (stereo in doubt; 4a)
5.21

* * *

Provide the reported pIC50 of each item.
Test system: Plasmodium falciparum
EXPERIMENT NOTES: Antiprotozoal activity against chloroquine-sensitive Plasmodium falciparum NF54 assessed as growth inhibition incubated for 48 hrs by [3H]-hypoxanthine incorporation assay
Type: functional, organism-based
Give bare numbers, as −log10 of the molar value.

Known results for compounds:
COMPOUND: COc1cccc2c(-c3ccc4c(c3O)[C@@H](C)N[C@H](C)C4)c(C)cc(O)c12 (stereo in doubt; 4b)
MEASUREMENT: 6.07
//
COMPOUND: COc1cccc2c(-c3ccc4c(c3O)[C@@H](C)N[C@H](C)C4)c(C)c(-c3c(C)c(-c4ccc5c(c4O)[C@@H](C)N[C@H](C)C5)c4cccc(OC)c4c3O)c(O)c12 (stereo in doubt; 1c)
MEASUREMENT: 7.26
//
COMPOUND: COc1cccc2c(-c3ccc4c(c3O)[C@@H](C)N[C@H](C)C4)c(C)c(-c3c(C)c(-c4ccc5c(c4O)[C@@H](C)N[C@H](C)C5)c4cccc(OC)c4c3O)c(O)c12 (stereo in doubt; 1b)
MEASUREMENT: 7.68

# next compound below
Please give the measured pIC50 for this compound: COc1cccc2c(-c3ccc4c(c3O)[C@@H](C)N[C@H](C)C4)c(C)c(-c3c(C)c(-c4ccc5c(c4O)[C@@H](C)N[C@H](C)C5)c4cccc(OC)c4c3O)c(O)c12 (stereo in doubt; 1a)
7.92
